Target: HLA-B*07:02
Assay: IEDB peptide-MHC binding, purified MHC/competitive/radioactivity; bounds were set here for any values at or beyond the usual limits of such assays
Settings: source organism: Bordetella pertussis
Overview of recorded pIC50 for various sequences
Here pIC50 is given on a logarithmic scale as minus log10 of the concentration in mol/L.

Previously resolved entries follow.
INSERT INTO measurements (residues, recordedvalue) VALUES
  ('GPPSRPTTP', 4.16),
  ('FVRSGQPVI', 4.76);

Look up and report measured pIC50 (HLA-B*07:02) for the following sequence: GPSAVAAPA
6.21

====

Target: HLA-B*44:03
Test: IEDB peptide-MHC binding, purified MHC/competitive/radioactivity; bounds were set here for any values at or beyond the usual limits of such assays
Conditions: source organism: Bordetella pertussis
observable: IC50 (nM)
Kindly provide the numeric value in nM only, without the unit symbol.

INSERT INTO results (residues, systemtested, scaleunit, recordedvalue) VALUES
  ('AQITSYVGF', 'HLA-B*44:03', 'nM', 2120);

Next sequence, IC50 to be filled in.
Look up and report measured IC50 (HLA-B*44:03) for the following sequence: AAVALLNKL
672

====

Overview of recorded pIC50 for various sequences
Biological target: HLA-A*02:01
Experiment: IEDB peptide-MHC binding, purified MHC/competitive/radioactivity; bounds were set here for any values at or beyond the usual limits of such assays
Conditions: source organism: Bordetella pertussis
Here pIC50 is given on a logarithmic scale as minus log10 of the concentration in mol/L.

Previously resolved entries follow.
INSERT INTO measurements (residues, systemtested, observable, recordedvalue) VALUES
  ('YMIYMSGLA', 'HLA-A*02:01', 'pIC50', 6.39),
  ('GVAPTAQQL', 'HLA-A*02:01', 'pIC50', 4.16);

Next sequence, pIC50 to be filled in.
Look up and report measured pIC50 (HLA-A*02:01) for the following sequence: VLVKTNMVV
4.94
